Recorded pEC50 by entry
target: T1, human GPC3 on CHO-K1-human GPC3 cells (CHOK1-hGPC3.2B5) (human, UniProt P51654 25-554); assay: FACS, CHOK1-hGPC3.2B5 cells;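 also: flow cytometry of humanized antibodies binding to the cells over one hour in the cold, read as cell mean fluorescence intensity, with EC50 obtained by curve fitting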
T1 construct: whole, on cells
The scale used: pEC50 is minus the common logarithm of the concentration in molar units.

Binder	Recorded result
hAb003LH3L1 (antibody, human IgG1, V domains shown, Humanized F2.154.1; VH H3 + VL L1; expressed as human IgG1) VH: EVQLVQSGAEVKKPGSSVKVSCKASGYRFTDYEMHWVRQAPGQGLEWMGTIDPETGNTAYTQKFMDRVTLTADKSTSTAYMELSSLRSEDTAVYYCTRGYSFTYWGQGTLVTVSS VL: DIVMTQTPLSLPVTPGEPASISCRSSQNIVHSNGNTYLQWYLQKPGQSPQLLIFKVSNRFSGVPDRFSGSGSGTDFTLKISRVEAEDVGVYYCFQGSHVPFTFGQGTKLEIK	8.96

binder hAb003LH1L1b (antibody, human IgG1, V domains shown, Humanized F2.154.1; VH H1 + VL L1b; expressed as human IgG1) VH: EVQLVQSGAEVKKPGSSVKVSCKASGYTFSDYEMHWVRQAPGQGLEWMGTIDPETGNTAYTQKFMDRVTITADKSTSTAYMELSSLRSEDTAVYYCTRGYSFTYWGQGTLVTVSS VL: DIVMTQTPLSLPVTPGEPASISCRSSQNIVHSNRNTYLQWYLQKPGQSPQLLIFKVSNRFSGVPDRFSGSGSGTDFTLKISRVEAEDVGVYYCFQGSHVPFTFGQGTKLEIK , pEC50 observed: 8.92
